biological target: RSV F protein of recombinant mKate-RSV, subtype B (18537) (Respiratory syncytial virus subtype B …, UniProt P13843 26-574); assay: cell-based or functional assay
observable: Neut IC50 subtype B (µg/mL)

| binder | observable | readout.units | observed.value |
| --- | --- | --- | --- |
| ADI-14518 (antibody, V domains shown) VH: QVQLVQSGPEVKKPGASVRVSCKTSGFTLSHYGVSWLRQAPGHGLEWLGWISAYNYNTQFGHRMEGRLTMTTDTSTAYMDLTSLTSDDTAIYYCARDSPSDTAAALLDFWGQGTLVTVSS VL: DIVLTQSPLSLPVTLGQPASISCRSSQSLVYSDGNTYLSWFQQRPGQAPRRLIYKISNRDSGVPDRFSGSGSGTDFTLKISRVEAEDVGIYYCMQATHWPRLSFGGGTKVEIK | Neut IC50 subtype B | µg/mL | 0.032 |
| ADI-14484 (antibody, V domains shown, full-length IgG (yeast-expressed); also called Antibody Number 45; Ab# 45) VH: QVTLKESGPALVRPKQTLTLTCSFSGFSLDTQRTGVNWIRQSPGKALEWLARIDWDGNIYSSTSVRTKLSISKGTSKNQVVLTMTDVDPVDTATYYCARTLYYTSGGYYLNLFDYWGQGTLVTVSS VL: EIVMTQSPPSLSASVGDRVTITCRASQTIPSYVNWYQQISGKAPRLLIYAASLLQSGVPSRFSGSGSGTEFSLTISGLRPEDFGTYYCQQSYSSTPTFGQGTRLEIK | Neut IC50 subtype B | µg/mL | 0.169 |

// data source = patent US20250313612A1
